- target-desc: Histone-lysine N-methyltransferase SUV39H1 (Homo sapiens)
- Sequence (O43463 whole entry): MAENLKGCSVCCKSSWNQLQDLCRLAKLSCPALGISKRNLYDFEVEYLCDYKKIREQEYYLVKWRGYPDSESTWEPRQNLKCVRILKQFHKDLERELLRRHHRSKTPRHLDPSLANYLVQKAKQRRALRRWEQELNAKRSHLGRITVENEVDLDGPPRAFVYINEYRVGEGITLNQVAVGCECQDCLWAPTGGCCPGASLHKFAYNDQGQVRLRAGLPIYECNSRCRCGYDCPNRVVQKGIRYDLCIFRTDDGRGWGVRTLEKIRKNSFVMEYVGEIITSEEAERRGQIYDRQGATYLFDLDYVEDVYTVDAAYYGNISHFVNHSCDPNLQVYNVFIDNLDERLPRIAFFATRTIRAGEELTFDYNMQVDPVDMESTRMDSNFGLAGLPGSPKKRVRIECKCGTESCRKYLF
- experiment-description: Inhibition of human SUV39H1
readout: pIC50
Would you please state pIC50, meaning minus log10 of the concentration in mol/L, as a bare number?

Challenge: Which measured pIC50 belongs to `CN1C(=O)[C@@]23C[C@]4([C@]56C[C@@]78SS[C@@](CO)(C(=O)N7[C@H]5Nc5ccccc56)N(C)C8=O)c5ccccc5N[C@@H]4N2C(=O)[C@]1(CO)SS3` , tested on Histone-lysine N-methyltransferase SUV39H1 (Homo sapiens)?
Response given: 6.10

---

- target-desc: Histone-lysine N-methyltransferase Set8 (Drosophila melanogaster, UniProt Q9VFK6)
- Sequence (Q9VFK6 whole entry): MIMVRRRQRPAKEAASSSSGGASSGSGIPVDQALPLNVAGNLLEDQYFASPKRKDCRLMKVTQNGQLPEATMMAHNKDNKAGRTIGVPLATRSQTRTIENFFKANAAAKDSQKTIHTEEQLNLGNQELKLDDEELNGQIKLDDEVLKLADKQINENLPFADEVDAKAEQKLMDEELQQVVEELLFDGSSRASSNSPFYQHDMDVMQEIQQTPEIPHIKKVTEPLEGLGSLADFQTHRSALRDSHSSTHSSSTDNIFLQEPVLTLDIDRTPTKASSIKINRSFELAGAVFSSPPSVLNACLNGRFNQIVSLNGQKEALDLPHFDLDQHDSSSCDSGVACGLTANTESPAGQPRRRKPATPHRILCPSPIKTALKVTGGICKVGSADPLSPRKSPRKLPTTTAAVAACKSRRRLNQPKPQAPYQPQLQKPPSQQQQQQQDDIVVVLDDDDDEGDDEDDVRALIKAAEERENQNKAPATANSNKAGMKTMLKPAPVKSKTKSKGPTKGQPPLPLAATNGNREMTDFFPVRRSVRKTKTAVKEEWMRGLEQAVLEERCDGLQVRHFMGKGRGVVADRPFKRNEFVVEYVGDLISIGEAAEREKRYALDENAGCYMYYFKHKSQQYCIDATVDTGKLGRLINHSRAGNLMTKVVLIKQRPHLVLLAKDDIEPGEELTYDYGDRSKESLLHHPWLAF
readout: IC50

Challenge: Field request: IC50 | item: CN1C(=O)[C@@]23C[C@]4([C@]56C[C@@]78SS[C@@](CO)(C(=O)N7[C@H]5Nc5ccccc56)N(C)C8=O)c5ccccc5N[C@@H]4N2C(=O)[C@]1(CO)SS3 [CHAETOCIN]
Response given: > 90 µM

---

- target-desc: Protein arginine N-methyltransferase 1 (Homo sapiens)
- Sequence (Q99873 whole entry): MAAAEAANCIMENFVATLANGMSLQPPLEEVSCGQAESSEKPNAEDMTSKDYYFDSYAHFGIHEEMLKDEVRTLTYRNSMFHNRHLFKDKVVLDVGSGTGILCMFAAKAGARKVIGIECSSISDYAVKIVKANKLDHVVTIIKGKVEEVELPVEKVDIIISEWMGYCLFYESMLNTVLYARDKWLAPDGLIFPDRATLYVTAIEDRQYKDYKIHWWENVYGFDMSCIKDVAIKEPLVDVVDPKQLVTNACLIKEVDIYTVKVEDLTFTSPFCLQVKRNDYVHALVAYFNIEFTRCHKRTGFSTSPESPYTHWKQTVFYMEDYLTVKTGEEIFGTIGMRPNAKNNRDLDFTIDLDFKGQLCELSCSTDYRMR
pIC50: −log10 of the molar value.
readout: pIC50

Challenge: Field request: pIC50 | item: `N[C@@H](CCCN(CCI)C[C@H]1O[C@@H](n2cnc3c(NCc4ccccc4)ncnc32)[C@H](O)[C@@H]1O)C(=O)O`
Response given: < 4.00

---

- target-desc: Histone-lysine N-methyltransferase EHMT2 (Homo sapiens)
- Sequence (Q96KQ7 whole entry, the tested form may be a part): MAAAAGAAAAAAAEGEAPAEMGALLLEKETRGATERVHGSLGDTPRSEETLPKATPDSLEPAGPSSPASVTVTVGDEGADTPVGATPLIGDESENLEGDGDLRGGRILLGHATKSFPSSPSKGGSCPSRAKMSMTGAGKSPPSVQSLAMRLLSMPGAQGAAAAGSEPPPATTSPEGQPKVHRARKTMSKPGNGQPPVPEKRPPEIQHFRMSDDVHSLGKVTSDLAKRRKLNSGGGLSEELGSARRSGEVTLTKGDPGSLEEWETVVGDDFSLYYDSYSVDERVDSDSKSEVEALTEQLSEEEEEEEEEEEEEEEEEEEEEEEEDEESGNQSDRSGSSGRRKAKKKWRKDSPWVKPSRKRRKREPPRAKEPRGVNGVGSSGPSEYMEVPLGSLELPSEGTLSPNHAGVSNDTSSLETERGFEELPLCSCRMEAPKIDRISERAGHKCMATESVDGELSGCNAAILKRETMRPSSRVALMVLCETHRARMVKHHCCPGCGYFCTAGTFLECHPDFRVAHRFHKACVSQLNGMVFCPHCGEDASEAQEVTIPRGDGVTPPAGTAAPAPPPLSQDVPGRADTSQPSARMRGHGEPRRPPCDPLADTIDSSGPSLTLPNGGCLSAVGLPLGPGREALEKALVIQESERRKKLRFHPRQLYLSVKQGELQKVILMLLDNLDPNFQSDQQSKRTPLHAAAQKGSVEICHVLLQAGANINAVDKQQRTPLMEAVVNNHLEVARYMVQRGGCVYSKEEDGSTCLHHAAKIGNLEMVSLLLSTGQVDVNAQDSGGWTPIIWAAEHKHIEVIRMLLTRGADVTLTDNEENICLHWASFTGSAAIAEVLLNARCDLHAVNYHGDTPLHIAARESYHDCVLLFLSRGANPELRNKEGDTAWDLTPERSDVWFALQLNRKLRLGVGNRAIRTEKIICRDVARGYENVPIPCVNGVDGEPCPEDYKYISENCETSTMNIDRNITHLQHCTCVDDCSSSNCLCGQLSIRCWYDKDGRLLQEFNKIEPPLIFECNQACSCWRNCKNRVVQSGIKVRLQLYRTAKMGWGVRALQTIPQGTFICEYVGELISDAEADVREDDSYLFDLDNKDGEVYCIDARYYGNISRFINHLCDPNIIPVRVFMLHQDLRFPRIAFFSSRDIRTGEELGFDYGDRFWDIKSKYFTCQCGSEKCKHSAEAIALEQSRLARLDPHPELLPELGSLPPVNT
- experiment-description: Binding affinity to human recombinant G9a catalytic domain amino acid 913 to 1193 expressed in Escherichia coli BL21 (DE3) by isothermal titration calorimetry assay
readout: Kd (nM)
Please give a number only; it is taken to be in nM.

Challenge: Field request: Kd | item: `COc1cc2c(NC3CCN(CCCCCN)CC3)nc(NCCCN(C)C)nc2cc1OCCCCCN`
Response given: 164

---

- target-desc: UniProtKB B2RXH2
- Sequence (B2RXH2 whole entry): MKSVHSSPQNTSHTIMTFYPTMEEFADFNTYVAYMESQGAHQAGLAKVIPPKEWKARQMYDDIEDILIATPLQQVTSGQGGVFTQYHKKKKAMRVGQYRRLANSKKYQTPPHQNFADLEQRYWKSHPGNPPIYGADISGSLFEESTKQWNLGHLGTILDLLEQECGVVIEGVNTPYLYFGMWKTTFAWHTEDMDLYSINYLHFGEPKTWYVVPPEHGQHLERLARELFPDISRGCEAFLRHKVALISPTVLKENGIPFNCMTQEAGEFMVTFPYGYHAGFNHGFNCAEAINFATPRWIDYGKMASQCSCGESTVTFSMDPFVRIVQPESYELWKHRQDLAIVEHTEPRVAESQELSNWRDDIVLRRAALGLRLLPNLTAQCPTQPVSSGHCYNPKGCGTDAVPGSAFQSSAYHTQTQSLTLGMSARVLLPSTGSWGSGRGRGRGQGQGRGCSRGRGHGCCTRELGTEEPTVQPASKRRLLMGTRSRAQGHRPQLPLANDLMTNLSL
- experiment-description: Inhibition of human JMJD2E
readout: IC50 (nM)
Please give a number only; it is taken to be in nM.

Challenge: Field request: IC50 | item: `O=C(O)c1ccnc(C(=O)O)c1Nc1ccccc1F`
Response given: 2500
